This collection of values is drawn from ChEMBL document CHEMBL1821627.

Below: a set of entries, each annotated with reported pIC50.
study_target: Transcriptional activator protein LasR (Pseudomonas aeruginosa (strain ATCC 15692 / PAO1 / 1C / PRS 101 / LMG12228), UniProt P25084)
Sequence (P25084 whole entry): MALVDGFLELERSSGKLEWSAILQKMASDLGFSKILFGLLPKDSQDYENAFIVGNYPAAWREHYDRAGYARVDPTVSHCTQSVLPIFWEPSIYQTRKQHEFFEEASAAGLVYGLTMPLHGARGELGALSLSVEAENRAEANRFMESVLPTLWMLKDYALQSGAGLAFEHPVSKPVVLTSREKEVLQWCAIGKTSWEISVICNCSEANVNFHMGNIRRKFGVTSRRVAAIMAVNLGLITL
assay_info: Antagonist activity at Pseudomonas aeruginosa LasR receptor assessed as inhibition of bioluminescence by reporter gene assay
Type: functional
// scale note: pIC50 = -log10(conc_M); give the bare number

Some solved cases for reference:
O=C(CCCCCCCCCN=C=S)CC(=O)N[C@H]1CCOC1=O | 3.95
O=C(CCCCCCCCN=C=S)CC(=O)N[C@H]1CCOC1=O | 3.52
O=C(CCCCCCCCCCN=C=S)CC(=O)N[C@H]1CCOC1=O | 4.34

We now examine a further compound.
Identify pIC50 associated with the compound O=C(CCCCCCCCCNC(=O)CBr)CC(=O)N[C@H]1CCOC1=O 4.00
